target: mouse c-Myc (mouse, UniProt P01108-2); assay: cell-based or functional assay
valueType: fold suppression of c-myc/RAS foci formation, REF cooperation assay (fold suppression)

binder: mouse Mxi-Δrep (other) MERFPSMPSPRLQHSKPPRRLSRAQKHSSGSSNTSTANRSTHNELEKNRRAHLRLCLKRLKVLIPLGPDCTRHTTLGLLNKAKAHIKKLEEAERKSQHQLENLEREQRFLKRRLEQLQGPQEMERIRMDSIGSTISSDRSDSEREEIEVDVESTEFSHGKADSVSTTSISDLDDHSSLQSVGSDEGYSSASVKLSFAS
recordedNumber: 1.57

binder: mouse Mxi-SR-pro (other) MERVRMINVQRLLEAAEFPERRERECEHGYASSFPSMPSPRLQHSKPPRRLSRAQKHSSGSSNTSTANRSTHNELEKNRRAHLRLCLKRLKVLIPLGPDCTRHTTLGLLNKAKAHIKKLEEAERKSQHQLENLEREQRFLKRRLEQLQGPQEMERIRMDSIGSTISSDRSDSEREEIEVDVESTEFSHGKADSVSTTSISDLDDHSSLQSVGSDEGYSSASVKLSFAS
recordedNumber: 1.78
